molecular target: Kir3.1/3.4 (Rattus norvegicus, UniProt P48548+P63251); construct: expressed in transfected cells; assay: Kir3.1/3.4 Electrophysiology Method (manual whole-cell patch clamp); assay type: cell-based; settings: Electrophysiology Method (TABLE 1)
Sequence (P63251 whole entry): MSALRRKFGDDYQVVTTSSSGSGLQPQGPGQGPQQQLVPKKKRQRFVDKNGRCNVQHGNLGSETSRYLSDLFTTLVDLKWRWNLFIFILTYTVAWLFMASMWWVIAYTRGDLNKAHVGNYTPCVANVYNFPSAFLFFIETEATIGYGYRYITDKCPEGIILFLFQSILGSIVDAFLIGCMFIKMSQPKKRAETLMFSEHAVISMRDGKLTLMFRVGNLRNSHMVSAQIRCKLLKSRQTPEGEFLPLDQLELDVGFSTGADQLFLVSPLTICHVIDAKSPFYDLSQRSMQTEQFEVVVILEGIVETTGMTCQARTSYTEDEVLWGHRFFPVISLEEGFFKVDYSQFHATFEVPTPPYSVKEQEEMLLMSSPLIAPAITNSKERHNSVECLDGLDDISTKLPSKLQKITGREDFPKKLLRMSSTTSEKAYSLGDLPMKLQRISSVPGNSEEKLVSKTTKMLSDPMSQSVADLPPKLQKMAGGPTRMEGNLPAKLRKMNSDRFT
Sequence (P48548 whole entry): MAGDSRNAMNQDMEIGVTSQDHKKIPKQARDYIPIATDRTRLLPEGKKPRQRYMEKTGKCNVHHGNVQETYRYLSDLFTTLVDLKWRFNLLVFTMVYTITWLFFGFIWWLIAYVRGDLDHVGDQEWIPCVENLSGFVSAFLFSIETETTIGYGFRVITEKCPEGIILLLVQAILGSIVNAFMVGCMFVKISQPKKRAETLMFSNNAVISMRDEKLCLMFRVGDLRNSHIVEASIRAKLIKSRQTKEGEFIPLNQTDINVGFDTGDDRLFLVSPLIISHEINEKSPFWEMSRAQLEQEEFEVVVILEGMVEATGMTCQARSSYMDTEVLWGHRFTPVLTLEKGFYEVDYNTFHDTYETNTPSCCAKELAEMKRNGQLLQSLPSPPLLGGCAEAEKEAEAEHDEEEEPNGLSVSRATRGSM
pIC50: −log10 of the molar value.
endpoint_label: pIC50

The following compounds have reported results that may help.
# compound, result
data = [
    ("CN(C)C1CCN(CC2CCN(c3nc(N4CCC(C(N)=O)C4)nc4scc(-c5ccccc5)c34)CC2)CC1 (centres unmarked) [Example 235]", "> 6.30"),
    ("Fc1ccc(-c2csc3ncnc(N4CCC(CNC5CC5)CC4)c23)cc1 [Example 77]", "5.52 to 6.30"),
    ("CN1CCCCC1CCNCC1CCN(c2ncnc3scc(-c4ccccc4)c23)CC1 (centres unmarked) [Example 80]", "> 6.30"),
]

query: Note pIC50 for the compound shown: F[C@H]1CCN(CCOC2CC3CC2CN3c2ncnc3scc(-c4ccccc4)c23)C1 (some centres unmarked) [Example 291]
result: > 6.30

query: Note pIC50 for the compound shown: COCCNc1nc(N2CCC(CNC3CCC3)CC2)c2c(-c3ccccc3)csc2n1 [Example 126]
result: > 6.30

query: Note pIC50 for the compound shown: CC(C)NC(=O)c1sc2ncnc(N3CCC(COCCN4CCCC4)CC3)c2c1C(C)C [Example 264]
result: 5.52 to 6.30

query: Note pIC50 for the compound shown: CN1CCC(N(C)CC2CCN(c3nc(N4CCCC4C(N)=O)nc4scc(-c5ccccc5)c34)CC2)C1 (centres unmarked) [Example 130]
result: 5.52 to 6.30

query: Note pIC50 for the compound shown: CN1CCCC1CCNC(=O)C1CCN(c2ncnc3scc(-c4ccccc4)c23)CC1 (centres unmarked) [Example 166]
result: 5.52 to 6.30

* * *

target: Kir3.1/3.4 (Rattus norvegicus, UniProt P48548+P63251); construct: expressed in transfected cells; assay: Kir3.1/3.4 Electrophysiology Method (manual whole-cell patch clamp); type: cell-based; conditions: Electrophysiology Method (TABLE 1)
pIC50: −log10 of the molar value.
Below: a set of entries, each annotated with reported pIC50.

# compound, pIC50
measured = [
    ("COc1ncc(F)cc1-c1csc2ncnc(N3C4CCC3CC(NC3CCC3)C4)c12 (stereo not shown) [Example 346]", "5.52 to 6.30"),
    ("O=C1CN(c2nc(N3CCC(CNC4CCC4)CC3)c3c(-c4ccccc4)csc3n2)CCN1 [Example 125]", "5.52 to 6.30"),
    ("NCCNCC1CCN(c2ncnc3scc(-c4ccccc4)c23)CC1 [Example 63]", "> 6.30"),
]

query: Note pIC50 for the compound shown: NC(=O)C1CCN(c2nc(N3CCOCC3)c3c(-c4ccccc4)csc3n2)C1 (stereo not shown) [Example 306]
result: 5.00 to 5.52

query: Note pIC50 for the compound shown: NC(=O)C1CCN(c2nc(N3CCC(CNC4CCC4)CC3)c3c(-c4ccccc4)csc3n2)C1 (stereo not shown) [Example 128]
result: 5.52 to 6.30

query: Note pIC50 for the compound shown: OCc1sc2ncnc(N3CCC(COCCN4CCCC4)CC3)c2c1-c1ccccc1 [Example 281]
result: > 6.30

query: Note pIC50 for the compound shown: CN(C)C(=O)c1sc2ncnc(N3C4CCC3CC(N(C)C3CCC3)C4)c2c1-c1ccccc1 (stereo not shown) [Example 347]
result: > 6.30

query: Note pIC50 for the compound shown: c1ccc(-c2csc3ncnc(N4CCC(OCCN5CCCC5)C4)c23)cc1 (stereo not shown) [Example 269]
result: > 6.30

Each recorded value in this set is attributed to patent US9290511B2.
